Data credit: paper PMC3878165

Target: SARS-CoV 3CLpro (Severe acute respiratory syndrome coronavirus, UniProt P0C6U8)
Format: biochemical

Molecule	3CLpro activity in words
CC(C)(C)NC(=O)C(c1ccsc1)N(C(=O)Cn1nnc2ccccc21)c1ccc(NC(=O)C2CCCCC2)cc1 (stereo not drawn) [13h]	loss of inhibition
CC(C)(C)NC(=O)C(c1ccsc1)N(C(=O)Cn1nnc2ccccc21)c1ccc(NC(=O)C2CC2)cc1 (stereo not drawn) [13f]	loss of inhibition
